Experiment: qHTS assay to identify small molecule agonists of the RXR signaling pathway - cell viability counter screen (AID 1159529);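 further: HEK 293T cells carrying an RXR-alpha UAS beta-lactamase reporter; on the % scale 0 is the no-effect control and ±100 the full control effect; nearly all actives have a fitted effect of over 50% in size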
Conditions: RXR-alpha-bla HEK293T viability, CellTiter-Glo, 16 h; series mostly up to 76.8 µM
Results filed as inconclusive are left out. Activity calls are given as the source filed them. The call rests on the fitted dose curve; in most records, active means well fitted cell-killing curve with a large enough effect in the repeat runs; inconclusive means weak or mixed curves, or effect the other way; inactive means no such curve, though single readings can be large or run the other way.
measure_name: activity change, negative = cytotoxicity

- compound: "CCCc1ccc(N)cc1"
  measure_name: "activity change, negative = cytotoxicity"
  endpoint_value: "inactive"
- compound: "CCc1cc(S(=O)(=O)O)c2cc(C(C)C)cccc1-2"
  measure_name: "activity change, negative = cytotoxicity"
  endpoint_value: "inactive"
- compound: "CC(C)=CCC/C(C)=C/C(=O)O"
  measure_name: "activity change, negative = cytotoxicity"
  endpoint_value: "inactive"
- compound: "c1ccc2cnncc2c1"
  measure_name: "activity change, negative = cytotoxicity"
  endpoint_value: "inactive"
- compound: "c1ccc(SCCSc2ccccc2)cc1"
  measure_name: "activity change, negative = cytotoxicity"
  endpoint_value: "inactive"
- compound: "O=C1CC2(CCCC2)CC(=O)N1"
  measure_name: "activity change, negative = cytotoxicity"
  endpoint_value: "inactive"
- compound: "CC(=O)NC(Cc1ccccc1)C(=O)O (stereo unspecified)"
  measure_name: "activity change, negative = cytotoxicity"
  endpoint_value: "inactive"
- compound: "C1CCCCCCCCCCC1"
  measure_name: "activity change, negative = cytotoxicity"
  endpoint_value: "1.49% [at 15.8 µM] (inactive)"
- compound: "COCCOC(=O)CC#N"
  measure_name: "activity change, negative = cytotoxicity"
  endpoint_value: "inactive"
- compound: "NC(N)=NS(=O)(=O)c1ccc(N)cc1"
  measure_name: "activity change, negative = cytotoxicity"
  endpoint_value: "inactive"
- compound: "CCCC(=O)O[C@]1(C(=O)CCl)[C@@H](C)C[C@H]2[C@@H]3CCC4=CC(=O)C=C[C@]4(C)[C@@]3(F)C(=O)C[C@@]21C"
  measure_name: "activity change, negative = cytotoxicity"
  endpoint_value: "inactive"
- compound: "CC(C)CCCC(C)CCCC(C)CCCCC(C)CCCC(C)CCCC(C)C (stereo unspecified)"
  measure_name: "activity change, negative = cytotoxicity"
  endpoint_value: "inactive"
- compound: "CO"
  measure_name: "activity change, negative = cytotoxicity"
  endpoint_value: "inactive"
- compound: "CCO[Si](C)(OCC)OCC"
  measure_name: "activity change, negative = cytotoxicity"
  endpoint_value: "inactive"
- compound: "CC(=O)OC(C)(C)C"
  measure_name: "activity change, negative = cytotoxicity"
  endpoint_value: "inactive"
- compound: "CCN1CCCC(OC(=O)C(c2ccccc2)c2ccccc2)C1 (stereo unspecified)"
  measure_name: "activity change, negative = cytotoxicity"
  endpoint_value: "inactive"
- compound: "CC1=CC(C)C(C=O)C(C)C1 (stereo unspecified)"
  measure_name: "activity change, negative = cytotoxicity"
  endpoint_value: "inactive"
- compound: "Nc1ncnc2c1ncn2Cc1c(F)cccc1Cl"
  measure_name: "activity change, negative = cytotoxicity"
  endpoint_value: "inactive"
- compound: "CCC(=O)/C=C/c1ccc(OC)cc1"
  measure_name: "activity change, negative = cytotoxicity"
  endpoint_value: "inactive"
- compound: "O=S(=O)(O)c1ccccc1O"
  measure_name: "activity change, negative = cytotoxicity"
  endpoint_value: "inactive"
- compound: "C=C(C)C(=O)OCCCCCCCCCCCCCCCCCC"
  measure_name: "activity change, negative = cytotoxicity"
  endpoint_value: "15.1% [at 15.8 µM] (inactive)"
- compound: "CSc1nc(NC2CC2)nc(NC(C)(C)C)n1"
  measure_name: "activity change, negative = cytotoxicity"
  endpoint_value: "inactive"
- compound: "C#CC(O)CCCCC (stereo unspecified)"
  measure_name: "activity change, negative = cytotoxicity"
  endpoint_value: "inactive"
- compound: "c1cc(CN2CCCCC2)cc(OCCCNc2nc3ccccc3s2)c1"
  measure_name: "activity change, negative = cytotoxicity"
  endpoint_value: "inactive"
- compound: "CNc1ncnc2nc[nH]c12"
  measure_name: "activity change, negative = cytotoxicity"
  endpoint_value: "inactive"
- compound: "COc1cc(C)cc(O)c1"
  measure_name: "activity change, negative = cytotoxicity"
  endpoint_value: "inactive"
- compound: "Cc1ccccc1C(=O)O"
  measure_name: "activity change, negative = cytotoxicity"
  endpoint_value: "inactive"
- compound: "OC/C=C/c1ccccc1"
  measure_name: "activity change, negative = cytotoxicity"
  endpoint_value: "inactive"
- compound: "CCCCCCCCCCC1CO1 (stereo unspecified)"
  measure_name: "activity change, negative = cytotoxicity"
  endpoint_value: "inactive"
- compound: "C=CCOCC(O)CS(=O)(=O)O (stereo unspecified)"
  measure_name: "activity change, negative = cytotoxicity"
  endpoint_value: "inactive"
- compound: "Cc1nccn1CC1CCc2c(c3ccccc3n2C)C1=O (stereo unspecified)"
  measure_name: "activity change, negative = cytotoxicity"
  endpoint_value: "inactive"

====

Assay: qHTS RealTime-Glo MT Cell Viability Assay in HEK293 cells - 40 hour (AID 1224874); further: on the % scale 0 is the no-effect control and ±100 the full control effect; nearly all actives have a fitted effect of over 50% in size
Conditions: RealTime-Glo luminescence; active compounds read low
Records with an inconclusive call do not appear.

- compound: "CCC(=O)/C=C/c1ccc(OC)cc1"
  unit: "%"
  max response: -0.0895
- compound: "N#CCN(CC#N)CCN(CC#N)CC#N"
  unit: "%"
  max response: 4.6
- compound: "COc1cc(C(=O)N2CCOCC2)cc(OC)c1OC"
  unit: "%"
  max response: 11.2
- compound: "COc1cccc(Br)c1"
  unit: "%"
  max response: -10
- compound: "CC/C=C\\CCCCO"
  unit: "%"
  max response: 1.83
- compound: "Cc1ccc(Nc2ccc(O)c3c2C(=O)c2ccccc2C3=O)cc1"
  unit: "%"
  max response: 7.86
- compound: "CC1CCN(CCCC(=O)c2ccc(F)cc2)CC1"
  unit: "%"
  max response: -2.98
- compound: "COCc1ccc(COC)cc1"
  unit: "%"
  max response: 4.98
- compound: "C=C(C)C(=O)NCCC[N+](C)(C)C"
  unit: "%"
  max response: 0.623
- compound: "Cc1cc(C)cc(OCC2CNC(=O)O2)c1 (stereo not given)"
  unit: "%"
  max response: 2.49
- compound: "CCCOCC(C)OCC(C)O (stereo not given)"
  unit: "%"
  max response: 5.98
- compound: "O=[N+]([O-])c1ccc(CCO)cc1"
  unit: "%"
  max response: -7.45
- compound: "CC(=O)CCc1ccc(O)cc1"
  unit: "%"
  max response: -1.37
- compound: "C=C(C)C(=O)NCCCN(C)C"
  unit: "%"
  max response: 9.44
- compound: "CCCCCCCCC=O"
  unit: "%"
  max response: -0.417

====

Target: Vitamin D3 receptor (Homo sapiens) (UniProt P11473)
Sequence (P11473 whole entry, looked up): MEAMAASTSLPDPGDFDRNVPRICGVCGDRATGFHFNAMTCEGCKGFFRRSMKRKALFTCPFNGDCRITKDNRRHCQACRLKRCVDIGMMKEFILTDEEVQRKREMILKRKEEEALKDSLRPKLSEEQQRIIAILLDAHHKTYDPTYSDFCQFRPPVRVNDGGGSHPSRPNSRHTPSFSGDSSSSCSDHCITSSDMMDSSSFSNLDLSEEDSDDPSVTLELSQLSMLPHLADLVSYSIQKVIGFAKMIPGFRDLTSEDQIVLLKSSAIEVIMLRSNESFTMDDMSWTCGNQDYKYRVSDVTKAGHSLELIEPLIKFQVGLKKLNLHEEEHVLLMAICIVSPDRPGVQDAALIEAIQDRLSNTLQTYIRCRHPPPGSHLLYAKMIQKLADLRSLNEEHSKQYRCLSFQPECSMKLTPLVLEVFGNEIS
Assay: qHTS assay to identify small molecule agonists of the vitamin D receptor (VDR) signaling pathway (AID 743222); further: on the % scale 0 is the no-effect control and ±100 the full control effect
Conditions: HEK293T VDR-UAS-bla, beta-lactamase FRET ratio, 16 h; series mostly up to 63.5 µM
Results filed as inconclusive are left out. Calls of active or inactive are those of the source. Calls follow the shape of the full dose curve.

- compound: "Cc1c(C)n(CCN(C)C)c2ccc(C(=O)OCCN(C)C)cc12"
  activation: "inactive"
- compound: "CC(C)COC(=O)c1ccccc1O"
  activation: "inactive"
- compound: "CCC(C)OC(=O)N1CCCCC1CCO (stereo not given)"
  activation: "inactive"
- compound: "CCn1c(=O)c2c(nc(/C=C/c3ccc(OC)c(OC)c3)n2C)n(CC)c1=O"
  activation: "inactive"
- compound: "CCC(=O)Nc1cccc(N)c1"
  activation: "inactive"
- compound: "O=C1OC(=O)c2cc([N+](=O)[O-])ccc21"
  activation: "inactive"
- compound: "OC/C=C/c1ccccc1"
  activation: "inactive"
- compound: "O=C(O)c1ccc[n+]([O-])c1"
  activation: "inactive"
- compound: "Cc1ccccc1Br"
  activation: "inactive"
- compound: "Nc1cc(N)cc(C(=O)O)c1"
  activation: "inactive"
- compound: "NC(CS)C(=O)O (stereo not given)"
  activation: "inactive"
- compound: "CN1[C@@H]2CC[C@H]1CC(NC(=O)n1c(=O)[nH]c3ccccc31)C2 (stereo not given in full)"
  activation: "inactive"
- compound: "CCC(=O)c1cccc(Cl)c1"
  activation: "inactive"
- compound: "COC(=O)C1=C(C)NC(C)=C(C(=O)OCC(C)=O)C1c1ccccc1[N+](=O)[O-] (stereo not given)"
  activation: "inactive"
- compound: "CN(C)N=Nc1ccccc1"
  activation: "inactive"
- compound: "CCCCCCC(CCCCCCCCCCC(=O)OCC(COC(C)=O)OC(C)=O)OC(C)=O (stereo not given)"
  activation: "inactive"
- compound: "Nc1nc2c(ncn2CCC(CO)CO)c(=O)[nH]1"
  activation: "inactive"
- compound: "Cc1ncc(CSSCc2cnc(C)c(O)c2CO)c(CO)c1O"
  activation: "inactive"
- compound: "c1ccc(CCCc2ccccn2)cc1"
  activation: "inactive"
- compound: "CCOC(=O)Cn1c(=O)sc2cccc(Cl)c21"
  activation: "inactive"
- compound: "CCCCc1ccc(N)cc1"
  activation: "inactive"
- compound: "CO[Si](OC)(OC)OC"
  activation: "inactive"
- compound: "Cc1c(F)cc2c(=O)c(C(=O)O)cn3c2c1CCC3C (stereo not given)"
  activation: "inactive"
- compound: "Cc1onc(-c2ccccc2)c1-c1ccc(S(N)(=O)=O)cc1"
  activation: "inactive"
- compound: "c1ccc(SCCSc2ccccc2)cc1"
  activation: "inactive"
- compound: "CCN(CC)S(=O)(=O)c1ccc(C(=O)O)cc1"
  activation: "inactive"
- compound: "Cc1ccccc1C(=O)O"
  activation: "inactive"
- compound: "CCCCCCC(=O)OCC"
  activation: "inactive"
- compound: "N#CC1(O)CCCCC1"
  activation: "inactive"
- compound: "C1=C\\CC/C=C\\CC/C=C\\CC/1"
  activation: "inactive"

Where do these numbers come from? They come from PubChem BioAssay (Tox21).
